# targetOfAssay: Sphingosine 1-phosphate receptor 1 (Homo sapiens, UniProt P21453)
# Sequence (P21453 whole entry): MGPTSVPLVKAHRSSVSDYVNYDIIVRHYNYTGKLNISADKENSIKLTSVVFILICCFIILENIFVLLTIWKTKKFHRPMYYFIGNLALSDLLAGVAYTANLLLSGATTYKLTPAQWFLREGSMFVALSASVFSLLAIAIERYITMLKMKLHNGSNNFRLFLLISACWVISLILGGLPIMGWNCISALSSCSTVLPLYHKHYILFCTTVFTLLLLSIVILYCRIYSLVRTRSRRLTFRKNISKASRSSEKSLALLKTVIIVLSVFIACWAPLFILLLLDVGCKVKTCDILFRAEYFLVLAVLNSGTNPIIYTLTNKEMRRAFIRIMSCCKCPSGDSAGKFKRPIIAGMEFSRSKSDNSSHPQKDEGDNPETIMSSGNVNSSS
# experimentNotes: Agonist activity at human S1P1 receptor expressed in human U2OS cells assessed as beta-arrestin-mediated receptor internalization by beta-lactamase reporter assay
# Format: functional, cell-based
# conditionDescription: read-out: pEC50 (converted)
observationType: EC50 (nM)
Write the number in nM without appending the unit.

Input: What measured EC50 goes with CCCCN(C(=O)c1ccc(C(F)(F)F)cc1)c1nnc(-c2ccc(S(=O)(=O)NCCC(=O)O)cc2)s1 ?
Output: 1.26

Input: What measured EC50 goes with CCCCN(C(=O)c1ccc(C(F)(F)F)cc1)c1nnc(-c2cccc3c2ccn3CCC(=O)O)s1 ?
Output: 0.0398

Input: What measured EC50 goes with CCCCN(C(=O)c1cccc(Cl)c1)c1nnc(-c2cccnc2)s1 ?
Output: 794

Input: What measured EC50 goes with CCCCN(C(=O)c1ccc(C(F)(F)F)cc1)c1nnc(-c2cccc(CN3CCNCC3)c2)s1 ?
Output: 3980
